test system: galium (catchweed bedstraw, Galium aparine); experiment: Test D pre-/postemergence plant response; type: in vivo; conditions: Postemergence, 125 g ai/ha; scale 0 to 100, 0 no effect, 100 complete control
Readout name: Plant response rating, Galium
Enter the number alone.

INSERT INTO assay_data (molecule, test_result) VALUES
  ('FC(Cl)(Cl)c1cc(-c2ccccc2Oc2ncc(Cl)cn2)no1 [Compound 198]', 98),
  ('Cc1cc(-c2c(F)cccc2Oc2ncc(Br)cn2)on1 [Compound 230]', 95),
  ('Cn1nnc(-c2ccccc2Oc2ncc(Br)cn2)n1 [Compound 50]', 60);

galium (catchweed bedstraw, Galium aparine) data for Fc1cccc(Oc2ncc(Br)cn2)c1-c1cc(C(F)F)on1 [Compound 118] ; its Plant response rating, Galium: 98

With galium (catchweed bedstraw, Galium aparine) as the test system, N#Cc1cccc(Oc2ncc(Cl)cn2)c1-c1cc(C(F)F)on1 [Compound 180] showed Plant response rating, Galium of 100

The reported Plant response rating, Galium value, galium (catchweed bedstraw, Galium aparine), for Fc1ccc(Oc2ncc(Cl)cn2)c(-c2cc(C(F)(Cl)Cl)on2)c1 [Compound 221] reads 100

# Cc1cc(-c2ccccc2Oc2ncc(Cl)cn2)no1 [Compound 60] with galium (catchweed bedstraw, Galium aparine): Plant response rating, Galium is 65

Tested on galium (catchweed bedstraw, Galium aparine): FC(F)c1cc(-c2c(Cl)cccc2Oc2ncc(Cl)cn2)no1 [Compound 179] . Observed Plant response rating, Galium: 75

The molecule CC(F)(F)c1cc(-c2ccccc2Oc2ncc(Br)cn2)no1 [Compound 149] on galium (catchweed bedstraw, Galium aparine): Plant response rating, Galium was 95

The recorded Plant response rating, Galium with galium (catchweed bedstraw, Galium aparine) for Clc1cnc(Oc2ccccc2-c2cc(Cl)sn2)nc1 [Compound 192] was 50
